I'd appreciate it if you could supply APOE RNA (% control) Spinal Cord values for the items below.
Tested on: human APOE RNA
Assay: Activity in APOE 1549 knock-in mice, single ICV bolus, 2 weeks (Example 7)
Type: in vivo
Settings: single ICV bolus of 300 μg, two weeks post treatment, spinal cord, Table 16
Strand notation (5' to 3'): a small letter for the sugar, then the base; units joined by * are phosphorothioate-linked, units joined directly phosphodiester-linked; [ ] holds rarer units or linkages, { } end groups; capitals alone tell only the bases. e = 2'-O-(2-methoxyethyl) (MOE); [5mC] = 5-methylcytosine; d = 2'-deoxy (DNA)
Answers are plain numbers, in % control.

1601948: 6-10-4 MOE gapmer GTTCAAATTCCATCCCCCCA, linkages sooooossssssssssoss (antisense eG*eTeTe[5mC]eAeAdA*dT*dT*d[5mC]*d[5mC]*dA*dT*d[5mC]*d[5mC]*d[5mC]*e[5mC]e[5mC]*e[5mC]*eA) [compound 1601948]
105

Now examine the next entry.
What value of APOE RNA (% control) Spinal Cord has been reported for the following substance? 1601956: 6-10-4 MOE gapmer AAGTTCTCCAATCGACGGCT, linkages sooooossssssssssoss (antisense eA*eAeGeTeTe[5mC]dT*d[5mC]*d[5mC]*dA*dA*dT*d[5mC]*dG*dA*d[5mC]*eGeG*e[5mC]*eT) [compound 1601956]
107

---

System: human APOE RNA
Experiment: Dose-dependent inhibition of human APOE RNA in HepG2 cells, electroporation, 50,000 cells per well, RT-PCR normalized to GAPDH (Example 4, Tables 8-10)
Assay type: cell-based
Details: 1,280 nM; HepG2, electroporation, 16-hour treatment
Strand notation (5' to 3'): a small letter for the sugar, then the base; units joined by * are phosphorothioate-linked, units joined directly phosphodiester-linked; [ ] holds rarer units or linkages, { } end groups; capitals alone tell only the bases. [ms] = mesyl phosphoramidate linkage; e = 2'-O-(2-methoxyethyl) (MOE); k = constrained ethyl (cEt); [5mC] = 5-methylcytosine; d = 2'-deoxy (DNA)
Given measured APOE RNA (% UTC), output t if it is greater than or equal to 30 % UTC and f if not.

1757566 (eA*e[5mC]eTkTkG*dG*dT*dG*dA*dA*dT*d[5mC]*dT*dT*dT*eAeTeT*eA*eA; antisense) [Compound 1757566]
t
1757575 (eA*e[5mC]eTeT*kG*kG*dT*dG[ms]dA[ms]dA[ms]dT*d[5mC]*dT*dT*dT*dA[ms]kT*eT*eA*eA; antisense) [Compound 1757575]
t
1757581 (eT*eTeGeGkT*dG*dA*dA*dT*d[5mC]*dT*dT*dT*dA*dT*eTeAeA*eA*e[5mC]; antisense) [Compound 1757581]
t
1757586 (eT*eTeGeGkT*dG*dA*dA*dT*d[5mC]*dT*dT*dT*dA*dT*kTkAeA*eA*e[5mC]; antisense) [Compound 1757586]
f

Here is the next item to consider.
Dear colleague, could you confirm whether 1757544: mixed MOE/cEt gapmer TTGGTGAATCTTTATTAA, sugar ekeeeddddddddeeeee, linkages soossssssssssooss (eT*kTeGeG*eT*dG*dA*dA*dT*d[5mC]*dT*dT*dT*eAeTeT*eA*eA) [compound 1757544] has APOE RNA (% UTC) at or above 30 % UTC?
t

This collection of values is drawn from patent US20250353873A1.
